B1: KCNK9 (parent)
chain: DVPDLQSVCSCTCYRSQDYGGRSV

- Variants of: B1
- Protocol details: protein stability index of a GFP-peptide fusion (GPS, HEK-293T) (PSI 1-6); higher = more stable;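 further: lentivirally expressed fusions sorted by FACS into six bins by GFP to DsRed ratio, PSI derived from sequencing read proportions per bin multiplied by bin number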
- Stated conditions: c terminus: a fixed tail appended
// F strictly below 2 in protein stability index; T otherwise

// known answers, use as guide
mutation_name=D18T group=F
mutation_name=V8K group=F
mutation_name=S10Q group=T
mutation_name=D1K group=T
mutation_name=C13G group=T
mutation_name=Q17S group=T

Query: Could you tell me if the measured protein stability index of `Q6P` reaches 2 or more?
Response: F

Query: Could you tell me if the measured protein stability index of `C13E` reaches 2 or more?
Response: T

Query: Could you tell me if the measured protein stability index of `Y19P` reaches 2 or more?
Response: F

Query: Could you tell me if the measured protein stability index of `L5Q` reaches 2 or more?
Response: T

Query: Could you tell me if the measured protein stability index of `S7I` reaches 2 or more?
Response: T
